- procedure-text: self-splicing fitness, log relative to wild type (ln ratio); higher = more splicing; Tetrahymena group I intron in knt gene, E. coli kanamycin selection, DiMSum; sequences stand for … in CUCUCU…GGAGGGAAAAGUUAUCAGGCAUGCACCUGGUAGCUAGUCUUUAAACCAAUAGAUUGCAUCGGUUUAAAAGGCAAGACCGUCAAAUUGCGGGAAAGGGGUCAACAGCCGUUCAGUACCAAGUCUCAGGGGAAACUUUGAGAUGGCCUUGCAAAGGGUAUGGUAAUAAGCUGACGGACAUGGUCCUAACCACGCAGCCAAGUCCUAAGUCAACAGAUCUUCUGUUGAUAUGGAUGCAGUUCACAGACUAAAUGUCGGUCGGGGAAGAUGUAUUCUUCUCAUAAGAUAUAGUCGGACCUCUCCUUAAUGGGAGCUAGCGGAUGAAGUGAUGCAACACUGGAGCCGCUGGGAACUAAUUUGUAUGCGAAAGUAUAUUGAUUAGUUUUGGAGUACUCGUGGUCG;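 also: selection with 25 µg/mL kanamycin versus none on LB agar overnight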
- study-conditions: 37 °C
Values of self-splicing fitness (ln) greater than or equal to -2 map to 1; values below map to 0.

Evaluate `CCUAAGCAAUAUUACGGCUG` : self-splicing fitness (ln) at minimum -2?
0

Quick check, self-splicing fitness (ln) >= -2? `GAUUAGCAAUAUUACGUUUC`
1

Could you verify whether the entry `UAUAAGCAAUAUUACGGCCU` shows self-splicing fitness (ln) of no less than -2?
1

Reported self-splicing fitness (ln) at or above -2? `CGAGAGCAAUAUUACGGCAC`
0

Please tell me: is the sequence `GUGUAGCAAUAUUACGUGCA` at or over -2 in terms of self-splicing fitness (ln)?
1

Could you tell me if the measured self-splicing fitness (ln) of `UUUUAGCAAUAUUACGUUCA` reaches -2 or more?
1

Entry `UAUGAGCAAUAUUACGGGAA` : is its self-splicing fitness (ln) no less than -2?
0

Entry `ACUUAGCAAUAUUACGUCGC` : is its self-splicing fitness (ln) no less than -2?
1

# bool: self-splicing fitness (ln) of `CCACAGCAAUAUUACGACUC` >= -2
0

Quick check: does `UAGGAGCAAUAUUACGGAAG` have self-splicing fitness (ln) greater than or equal to -2?
1

Check this sequence for self-splicing fitness (ln) at or above -2: `AGUAAGCAAUAUUACGCGUG`
1

Does the reported self-splicing fitness (ln) for `AUCCAGCAAUAUUACGAUUG` fall at or above the -2 mark?
0

Dear colleague, could you confirm whether `GGAAAGCAAUAUUACGCGCA` has self-splicing fitness (ln) at or above -2?
1

Check the entry `CUAGAGCAAUAUUACGGGCC` : does self-splicing fitness (ln) equal or exceed -2?
1

I'd appreciate it if you could say whether `UUAUAGCAAUAUUACGAUCG` has self-splicing fitness (ln) at least equal to -2.
1

Confirm if self-splicing fitness (ln) reported for the sequence `CCUCAGCAAUAUUACGGCGG` is -2 or above.
0

Reported self-splicing fitness (ln) reaches at least -2 for `CCGCAGCAAUAUUACGAUCA` ?
1

hey, is self-splicing fitness (ln) for this one >= -2? `AGCCAGCAAUAUUACGCUAC`
1

Would you say `GGAAAGCAAUAUUACGAAUG` shows self-splicing fitness (ln) at minimum -2?
1

Has `CGCCAGCAAUAUUACGGCGA` a recorded self-splicing fitness (ln) greater than or equal to -2?
1

Confirm if self-splicing fitness (ln) reported for the sequence `GUUCAGCAAUAUUACGGUCC` is -2 or above.
1

Please tell me: is the sequence `AUGUAGCAAUAUUACGUGCC` at or over -2 in terms of self-splicing fitness (ln)?
1

Reported self-splicing fitness (ln) reaches at least -2 for `AAUUAGCAAUAUUACGCAAU` ?
1

Is self-splicing fitness (ln) for `ACUCAGCAAUAUUACGGUCA` at or above -2?
1

Check the entry `GUUCAGCAAUAUUACGAACG` : does self-splicing fitness (ln) equal or exceed -2?
1

Does `ACCAAGCAAUAUUACGUUCC` have a reported self-splicing fitness (ln) of at least -2?
1

Is self-splicing fitness (ln) at least -2? Consider `CAUUAGCAAUAUUACGCACC`
1

Assess whether reported self-splicing fitness (ln) for `AGGCAGCAAUAUUACGCCGU` sits at -2 or higher.
1

Hello, I need to know if `AUAGAGCAAUAUUACGGGAG` has measured self-splicing fitness (ln) not below -2. Thanks!
0

# bool: self-splicing fitness (ln) of `CCCGAGCAAUAUUACGUCGA` >= -2
0

Quick check: does `AUUCAGCAAUAUUACGCCUG` have self-splicing fitness (ln) greater than or equal to -2?
1

Check if self-splicing fitness (ln) >= -2 (inclusive). Item: `UUUGAGCAAUAUUACGCUAG`
1

Is reported self-splicing fitness (ln) greater than or equal to -2 here: `ACAAAGCAAUAUUACGACAG`
1

self-splicing fitness (ln) >= -2 for `UCUCAGCAAUAUUACGUUCU` ?
1

I'd appreciate it if you could say whether `AAACAGCAAUAUUACGGAGG` has self-splicing fitness (ln) at least equal to -2.
1

In plain terms: is recorded self-splicing fitness (ln) at least -2 for `AAAUAGCAAUAUUACGUGCA` ?
1

Does `UACUAGCAAUAUUACGAUGG` have a reported self-splicing fitness (ln) of at least -2?
1

hey, is self-splicing fitness (ln) for this one >= -2? `UGCAAGCAAUAUUACGAGCU`
1

Is the recorded value of self-splicing fitness (ln) equal to or greater than -2 for this sequence? `GCAGAGCAAUAUUACGGAAA`
0

Check this sequence for self-splicing fitness (ln) at or above -2: `GUAAAGCAAUAUUACGUAUG`
1

Determine whether measured self-splicing fitness (ln) meets or exceeds -2 for `UGGCAGCAAUAUUACGUUAC`
0

Hi team, for `UCCGAGCAAUAUUACGGCGU` , is the recorded self-splicing fitness (ln) at or above -2?
1

Please tell me: is the sequence `AAUAAGCAAUAUUACGAUCU` at or over -2 in terms of self-splicing fitness (ln)?
1

Entry `AAUCAGCAAUAUUACGUGGC` : is its self-splicing fitness (ln) no less than -2?
1

Answer whether self-splicing fitness (ln) of `UAUUAGCAAUAUUACGACUC` is greater than or equal to -2.
1

Record `GUUCAGCAAUAUUACGCGGU` ; criterion: self-splicing fitness (ln) no lower than -2. Met?
1

Confirm if self-splicing fitness (ln) reported for the sequence `GAUCAGCAAUAUUACGAAAA` is -2 or above.
1

Answer whether self-splicing fitness (ln) of `CAUCAGCAAUAUUACGGUAC` is greater than or equal to -2.
0

In plain terms: is recorded self-splicing fitness (ln) at least -2 for `GACUAGCAAUAUUACGGGUU` ?
0

# bool: self-splicing fitness (ln) of `UUUGAGCAAUAUUACGGGUU` >= -2
0

Check this sequence for self-splicing fitness (ln) at or above -2: `GCCCAGCAAUAUUACGUUAC`
1

Quick check: does `CACAAGCAAUAUUACGUCGA` have self-splicing fitness (ln) greater than or equal to -2?
1

Does `GUUAAGCAAUAUUACGCUAG` have a reported self-splicing fitness (ln) of at least -2?
1

self-splicing fitness (ln) >= -2 for `CGUUAGCAAUAUUACGGGAG` ?
0

Please indicate if the recorded self-splicing fitness (ln) for `CUAGAGCAAUAUUACGAUGU` meets or exceeds -2.
0

hey, is self-splicing fitness (ln) for this one >= -2? `CAAGAGCAAUAUUACGACUG`
1

# bool: self-splicing fitness (ln) of `GCCAAGCAAUAUUACGGUAC` >= -2
1

Does the sequence `AUGCAGCAAUAUUACGCACG` have recorded self-splicing fitness (ln) that is -2 or more?
1

Could you tell me if the measured self-splicing fitness (ln) of `ACCGAGCAAUAUUACGUCAG` reaches -2 or more?
0

Is self-splicing fitness (ln) for `CCCAAGCAAUAUUACGAAGG` at or above -2?
0

Determine whether this sequence has self-splicing fitness (ln) no lower than -2: `UCCCAGCAAUAUUACGGCGU`
1

Does the sequence `CCAGAGCAAUAUUACGGUGC` have recorded self-splicing fitness (ln) that is -2 or more?
0

Tell me whether self-splicing fitness (ln) is at least -2 here: `CGGAAGCAAUAUUACGGCUA`
1

Would you say `UACAAGCAAUAUUACGUGCU` shows self-splicing fitness (ln) at minimum -2?
0

Item `AUAUAGCAAUAUUACGGACG` with self-splicing fitness (ln) of -2 or above?
1

Tell me whether self-splicing fitness (ln) is at least -2 here: `CUGAAGCAAUAUUACGUAGC`
0

Origin of the recorded values: the supplement of paper PMC7877785
